// pKd lookup, one value per entry
# MEASURED ON: tag-free LigB12 mutant E1088A (L. interrogans serovar Pomona)
# EXPERIMENTAL DETAILS: ELISA; tag-free LigB12 wild type or point mutants coated (1 μM/well); His tagged HTE20 or HTE20N titrated 0 to 10 μM; anti-His detection
pKd field: float, defined as -log10 of concentration (mol/L).

histidine tagged HTE20 (domain or fragment) GIPGAAVPGVVSPEAAAKAAAKAAKYGARPGVGVGGIPTYGVGAGGFPGFGVGVG    6.06

# input Return reported pKd; argument: GIPGAAVPGVVSPEAAAKAAAKAAKYG (domain or fragment) [histidine tagged HTE20N]
# output 6.06
